- System: RXF 393
- assayMethodText: NCI one-dose SRB assay (Renal Cancer)
- Format: cell-based, human
- conditionNotes: RXF 393, 1.00E-5 Molar
Reported Growth Percent values for a set of compounds
Phrase the answer as number then unit, nothing more needed.

Recorded results for 2 compounds are shown here.
>  <compoundStructureString>
COc1ccc(-c2ccc(NC(=O)Nc3cccc(Cl)c3)c(C)n2)cc1OC

>  <measValue>
82.62%

$$$$
>  <compoundStructureString>
COc1cccc(NC(=O)Nc2ccc(-c3ccc(OC)c(OC)c3)nc2C)c1

>  <measValue>
108.45%

$$$$

# Growth Percent lookup, item `COc1ccc(-c2ccc(NC(=O)Nc3ccc(Cl)c(C(F)(F)F)c3)c(C)n2)cc1`
81.37%

----------
- Tested on: OVCAR-3
- assayMethodText: NCI one-dose SRB assay (Ovarian Cancer)
- Format: cell-based, human
- conditionNotes: OVCAR-3, 1.00E-5 Molar
Recorded Growth Percent values for a group of molecules are listed next.
Respond with the figure and its unit, in that order.

So what does the record say about Growth Percent for `COc1ccc(-c2ccc(NC(=O)Nc3cccc(Cl)c3)c(C)n2)cc1OC` ?
90.37%

Param item = `COc1ccc(-c2ccc(NC(=O)Nc3cccc(C(F)(F)F)c3)c(C)n2)cc1` ; retrieve measured Growth Percent.
41.93%

Requested read-out: Growth Percent. Entry: `COc1cccc(NC(=O)Nc2ccc(-c3ccc(OC)c(OC)c3)nc2C)c1`
101.69%

Entry `COc1ccc(-c2ccc(NC(=O)Nc3cccc(C(F)(F)F)c3)c(C)n2)cc1OC` has what Growth Percent?
69.16%

----------
- Tested on: NCI 58 cell line panel
- assayMethodText: NCI one-dose SRB assay, whole panel / subpanel summary
- Assay type: cell-based, human
- conditionNotes: Homo sapiens; 10 μM, one dose; read-out: mean inhibition (mean % growth inhibition over NCI 58 cell line panel)
Form field: inhibition at 10 µM (one value per entry).

Reference set, count: 2
>  <compound>
COc1ccc(-c2ccc(NC(=O)Nc3cccc(Cl)c3)c(C)n2)cc1OC [Compound 8j]

>  <inhibition at 10 µM>
22 to 34%

$$$$
>  <compound>
COc1ccc(-c2ccc(NC(=O)Nc3cccc(C(F)(F)F)c3)c(C)n2)cc1OC [Compound 8i]

>  <inhibition at 10 µM>
22 to 34%

$$$$

Please look up its inhibition at 10 µM: COc1ccc(NC(=O)Nc2ccc(-c3ccc(OC)c(OC)c3)nc2C)cc1 [Compound 8n]
22 to 34%
